Where do these numbers come from? They come from the MegaScale stability set (Tsuboyama et al. 2023).

B1: EHEE_rd3_0053 (parent)
chain: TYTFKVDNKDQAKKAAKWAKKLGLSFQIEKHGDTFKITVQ

# Variants of: B1
# experiment.summary: folding stability dG (cDNA display proteolysis); higher = more stable
# test.context: PBS, room temperature
experimental.endpoint: folding stability dG (kcal/mol)
Report the value in kcal/mol with no unit label.

Worked cases, answers included:
mutant: V39D
folding stability dG, kcal/mol: -0.839

mutant: A15M
folding stability dG, kcal/mol: 2.5

mutant: K14R
folding stability dG, kcal/mol: 2.62

mutant: Q27W
folding stability dG, kcal/mol: 2.62

mutant: Q27C
folding stability dG, kcal/mol: 2.84

Memo: G23R , reported folding stability dG: 1.66

Memo: K9W , reported folding stability dG: 3.2
